# ASSAYED SYSTEM: recombinant human Myt1 (full length PKMYT1) (Homo sapiens)
# Sequence (Q99640 whole entry): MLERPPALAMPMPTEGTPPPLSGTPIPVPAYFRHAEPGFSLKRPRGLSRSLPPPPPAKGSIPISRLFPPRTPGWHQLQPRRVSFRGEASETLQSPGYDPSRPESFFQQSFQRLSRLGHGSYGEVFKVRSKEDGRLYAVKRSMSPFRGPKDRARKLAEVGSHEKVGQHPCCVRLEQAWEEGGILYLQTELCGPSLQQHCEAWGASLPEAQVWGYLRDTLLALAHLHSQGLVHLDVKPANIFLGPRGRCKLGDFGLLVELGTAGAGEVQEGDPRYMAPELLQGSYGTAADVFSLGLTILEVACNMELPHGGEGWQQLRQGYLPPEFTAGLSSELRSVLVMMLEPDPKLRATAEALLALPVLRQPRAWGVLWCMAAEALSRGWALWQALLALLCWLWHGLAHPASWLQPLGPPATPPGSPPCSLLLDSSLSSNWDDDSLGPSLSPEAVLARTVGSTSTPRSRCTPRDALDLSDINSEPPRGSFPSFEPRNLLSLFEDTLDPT
# ASSAY DETAILS: ADP-Glo assay (Myt1 kinase activity)
OUTCOME MEASURE: IC50 (nM)
One number for each entry, in nM.

INSERT INTO measurements (molecule, measured_number) VALUES
  ('Cc1cc2[nH]c(=O)c(N)c(-c3ccc(F)c4[nH]ncc34)c2nc1C#CCN1CCOCC1', 14.8),
  ('CSc1cnc2c(-c3ccc(F)c4[nH]ncc34)c(N)c(=O)[nH]c2c1C', 10.4),
  ('Cc1ncc(OCc2ccccc2)c2c(-c3ccc(F)c4[nH]ncc34)c(N)c(=O)[nH]c12', 20),
  ('Cc1cc(Cl)c2[nH]c(=O)c(N)c(-c3ccc(F)c4[nH]ncc34)c2n1', 13),
  ('Cc1cc2[nH]c(=O)c(N)c(-c3ccc(F)c4[nH]ncc34)c2nc1C1CCNCC1', 10.9);

List IC50 for every entry below, keeping the order given.
1. Cc1ncc(OC(C)C)c2c(-c3ccc(F)c4[nH]ncc34)c(N)c(=O)[nH]c12
2. Cc1nc2c(-c3ccc(F)c4[nH]ncc34)c(N)c(=O)[nH]c2c(Cl)c1C
3. Nc1c(-c2ccc(F)c3[nH]ncc23)c2ncc(N3CCOCC3)cc2[nH]c1=O
4. Cc1cc2[nH]c(=O)c(N)c(-c3ccc(F)c4[nH]ncc34)c2nc1OCC12CC(C1)C2
5. COCC#Cc1nc2c(-c3ccc(F)c4[nH]ncc34)c(N)c(=O)[nH]c2cc1C
6. Cc1cc2[nH]c(=O)c(N)c(-c3ccc(F)c4[nH]ncc34)c2nc1OCC(F)(F)F
7. Cc1c([S+](C)[O-])cnc2c(-c3ccc(F)c4[nH]ncc34)c(N)c(=O)[nH]c12 (centres unmarked)
8. CC(C)(O)c1cnc2c(-c3ccc(F)c4[nH]ncc34)c(N)c(=O)[nH]c2c1

14.7
11.7
30.3
9.7
13.1
11.6
18.4
24.2

Okay, here is my list. What is IC50 for each of these?
1. CCCOc1nc2c(-c3ccc(F)c4[nH]ncc34)c(N)c(=O)[nH]c2cc1C
2. Cc1ncc(OC2CC2)c2c(-c3ccc(F)c4[nH]ncc34)c(N)c(=O)[nH]c12

1: 14.7; 2: 10.8

----------
Give measured Clearance of Human microsome for each item. Keep answers brief.
# ASSAY DETAILS: Human microsome stability assay
# PROTOCOL CONDITIONS: 1 μM compound, 0.5 mg/mL liver microsomal protein, 1 mM NADPH, 37° C., 0-30 minutes
Give bare numbers, in mL/min/kg.

These recorded examples may help you get a feel for the data.
INSERT INTO results (compound, measured_number) VALUES
  ('COc1cnc(C)c2[nH]c(=O)c(N)c(-c3ccc(F)c4[nH]ncc34)c12 [Example 173]', 6.15),
  ('COc1cnc2c(-c3ccc(F)c4[nH]ncc34)c(N)c(=O)[nH]c2c1C [Example 136]', 6.15),
  ('Cc1cnc(Cl)c2c(-c3ccc(F)c4[nH]ncc34)c(N)c(=O)[nH]c12 [Example 164]', 6.15),
  ('COc1ncc(C)c2[nH]c(=O)c(N)c(-c3ccc(F)c4[nH]ncc34)c12 [Example 172]', 6.20),
  ('Cc1nc2c(-c3ccc(F)c4[nH]ncc34)c(N)c(=O)[nH]c2c(C)c1C [Example 110]', 6.15),
  ('Cc1cc2[nH]c(=O)c(N)c(-c3ccc(F)c4[nH]ncc34)c2nc1C#CCN1CCOCC1 [Example 076]', 8.12),
  ('Cc1c([S+](C)[O-])cnc2c(-c3ccc(F)c4[nH]ncc34)c(N)c(=O)[nH]c12 (centres unmarked) [Example 142]', 6.15);

Could you now look at the following compound, please?
Quick one: give measured Clearance of Human microsome for CCOC(=O)COc1nc2c(-c3ccc(F)c4[nH]ncc34)c(N)c(=O)[nH]c2cc1C [Example 061]
6.15
